# tested_target: UniProt:Q9UBN7
# Sequence (Q9UBN7 whole entry, species assumed): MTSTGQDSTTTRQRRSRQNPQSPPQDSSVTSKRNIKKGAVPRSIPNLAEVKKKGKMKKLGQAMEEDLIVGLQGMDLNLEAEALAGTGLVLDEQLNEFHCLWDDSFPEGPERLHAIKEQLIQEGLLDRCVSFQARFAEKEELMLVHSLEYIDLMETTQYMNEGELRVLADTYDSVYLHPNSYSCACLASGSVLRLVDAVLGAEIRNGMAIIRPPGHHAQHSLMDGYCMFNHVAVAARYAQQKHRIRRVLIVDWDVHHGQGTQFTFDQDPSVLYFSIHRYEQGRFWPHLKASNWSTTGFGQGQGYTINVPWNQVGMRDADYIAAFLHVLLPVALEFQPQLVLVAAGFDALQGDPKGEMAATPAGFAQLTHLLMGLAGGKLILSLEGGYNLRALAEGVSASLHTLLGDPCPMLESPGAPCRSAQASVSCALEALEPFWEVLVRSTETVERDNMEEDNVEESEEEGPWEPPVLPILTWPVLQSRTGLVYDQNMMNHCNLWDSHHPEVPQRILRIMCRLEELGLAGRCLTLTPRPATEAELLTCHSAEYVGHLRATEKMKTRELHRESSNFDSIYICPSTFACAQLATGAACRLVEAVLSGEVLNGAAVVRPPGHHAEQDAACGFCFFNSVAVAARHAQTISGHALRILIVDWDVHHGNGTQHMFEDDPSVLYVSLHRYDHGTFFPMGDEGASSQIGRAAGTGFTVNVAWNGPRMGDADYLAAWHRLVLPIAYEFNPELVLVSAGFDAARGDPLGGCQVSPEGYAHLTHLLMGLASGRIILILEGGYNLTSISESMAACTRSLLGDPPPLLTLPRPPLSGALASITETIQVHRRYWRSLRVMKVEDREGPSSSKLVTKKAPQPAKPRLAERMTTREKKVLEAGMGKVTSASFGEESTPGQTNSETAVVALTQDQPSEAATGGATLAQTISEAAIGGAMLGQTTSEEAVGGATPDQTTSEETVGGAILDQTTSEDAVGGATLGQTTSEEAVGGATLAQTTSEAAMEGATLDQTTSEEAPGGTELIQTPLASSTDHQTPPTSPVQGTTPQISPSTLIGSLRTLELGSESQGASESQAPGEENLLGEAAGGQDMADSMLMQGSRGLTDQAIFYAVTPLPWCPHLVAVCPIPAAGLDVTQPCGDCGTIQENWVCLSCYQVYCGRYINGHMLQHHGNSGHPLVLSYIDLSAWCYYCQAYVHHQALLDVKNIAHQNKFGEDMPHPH
parameter_measured: pIC50
Expect pIC50 as a plain number equal to -log10 of the molar concentration.

What does the record list as pIC50 for C[S@@+]([O-])CCCCN=C=S [LSF] ? 2.99
